- Tested on: IL3000 T. congolense (drug sensitive) strain
- EXPERIMENT_DESCRIPTION: In vitro Alamar Blue 72 hrs drug sensitivity assay for T. congolense
- Assay type: cell-based
- EXPERIMENTAL_CONDITIONS: Trypanosoma congolense, IL3000 T. congolense bloodstream form, read-out: T. congo Act.
This section presents molecules with their documented IC50 values.

Req: // returns reported IC50 for input NCC1CCC(n2c(Nc3cc(C(F)(F)F)ccc3F)nc3cnc(NC4CCOCC4)nc32)CC1 (centres unmarked) [B-16]
Resp: 350 to 500 nM

Req: What do we get for CC1(Nc2ncc3nc(Nc4cccc(C(F)(F)F)c4)n(C4CCC(CN)CC4)c3n2)CCC1 (centres unmarked) [A-57] ?
Resp: < 150 nM

Req: What do you get for CC(C)(C)Nc1ncc2nc(Nc3cc(Cl)cc(Cl)c3)n([C@H]3CC[C@@H](CN)CC3)c2n1 [A-48] ?
Resp: 150 to 350 nM

Req: Here is the next molecule: NCC1CCC(n2c(Nc3cc(C(F)(F)F)ccc3F)nc3cnc(N4CCCC4)nc32)CC1 (centres unmarked) [B-15]
Resp: 150 to 350 nM

New cases:
Req: Suppose we examine the molecule CC1(Nc2ncc3nc(Nc4cccc(Cl)c4)n([C@H]4CC[C@@H](CN5CCOCC5)CC4)c3n2)CCOCC1 [A-41] ; what IC50 value has been reported?
Resp: < 150 nM

Req: // same read-out, input: NC1CCC(n2c(Nc3cccc(Cl)c3)nc3cnc(NCC4CC4)nc32)CC1 (centres unmarked) [B-3]
Resp: 350 to 500 nM

Req: Entry NC[C@H]1CC[C@@H](n2c(Nc3cccc(Cl)c3)nc3cnc(NC4CCOCC4)nc32)CC1 [B-1] please
Resp: 150 to 350 nM

Req: And then CC(C)(C)Nc1ncc2nc(Nc3cccc(C(F)(F)F)c3)n([C@H]3CC[C@@H](N)CC3)c2n1 [A-29] , what is it?
Resp: < 150 nM

Req: Moving on to the next molecule: CC1(Nc2ncc3nc(Nc4cc(Cl)cc(C(F)(F)F)c4)n([C@H]4CC[C@@H](CN)CC4)c3n2)CCOCC1 [A-36]
Resp: < 150 nM

Req: Next: CC1(Nc2ncc3nc(Nc4cc(Cl)cc(Cl)c4)n([C@H]4CC[C@@H](CN)CC4)c3n2)CCOCC1 [A-43]
Resp: < 150 nM

Req: Next molecule up: CC(C)(C)Nc1ncc2nc(Nc3cccc(C(F)(F)F)c3)n([C@H]3CC[C@H](N)CC3)c2n1 [A-30]
Resp: < 150 nM

Req: Lookup CC1(Nc2ncc3nc(Nc4cccc(C(F)(F)F)c4F)n([C@H]4CC[C@@H](CN)CC4)c3n2)CCOCC1 [A-46]
Resp: < 150 nM

====

Parameter IC50: see the listing below.
- Test system: IL3000 T. congolense (drug sensitive) strain
- EXPERIMENT_DESCRIPTION: In vitro Alamar Blue 72 hrs drug sensitivity assay for T. congolense
- Type: cell-based
- EXPERIMENTAL_CONDITIONS: Trypanosoma congolense, IL3000 T. congolense bloodstream form, read-out: T. congo Act.

// solved cases for IC50 follow
Req: Lab note: need IC50 with IL3000 T. congolense (drug sensitive) strain for entry CC1(Nc2ncc3nc(Nc4cc(C(F)(F)F)ccc4F)n([C@H]4CC[C@@H](CN)CC4)c3n2)CCOCC1 , please look it up.
Resp: < 0.15 µM

Req: And then CC1(Nc2ncc3nc(Nc4cccc(Cl)c4)n(C4CCC(CN)CC4)c3n2)CCCC1 (stereo not drawn) , what is it?
Resp: < 0.15 µM

Req: Next compound up: CC(C)(C)Nc1ncc2nc(Nc3ccccn3)n(C3CCC(CN)CC3)c2n1 (stereo not drawn)
Resp: 0.35 to 0.5 µM

Req: Now consider CC(=O)NC[C@H]1CC[C@@H](n2c(Nc3cccc(Cl)c3)nc3cnc(NC4(C)CCOCC4)nc32)CC1 .
Resp: 0.35 to 0.5 µM

Req: Same for CC1(Nc2ncc3nc(Nc4cccc(Cl)c4)n(-c4ccc(CN)cc4)c3n2)CCOCC1
Resp: 0.15 to 0.35 µM

Req: Try this compound next: CC1(Nc2ncc3nc(Nc4cccc(Cl)c4)n([C@@H]4CCC[C@H](CN)C4)c3n2)CCOCC1
Resp: 0.35 to 0.5 µM

---
Req: What IC50 appears in the records for this compound with IL3000 T. congolense (drug sensitive) strain? CC1(O)CCC(Nc2ncc3nc(Nc4cccc(Cl)c4)n(C4CCC(CN)CC4)c3n2)CC1 (stereo not drawn)
Resp: 0.35 to 0.5 µM

Req: Next record, please: CC1(Nc2ncc3nc(Nc4cccc(Cl)c4)n([C@H]4CC[C@H](CN)CC4)c3n2)CCOCC1
Resp: < 0.15 µM

Req: Subsequent entry: CC(C)(C)Nc1ncc2nc(Nc3ccc(Cl)c(Cl)c3)n(C3CC(N)C3)c2n1 (stereo not drawn)
Resp: 0.35 to 0.5 µM
